Assay: Dog pharmacokinetic studies
Format: in vivo, male Beagle dogs
Conditions: male, Beagle, plasma, PO 2.5 mg/kg
outcomeMeasure: Tmax (min)
// note: answer is a bare numeric in min

# input Could you share which Tmax value was measured for CC(C)(C)NC[C@H](O)c1cccc(C(F)(F)F)n1 [Compound 03-3] ?
# output 30

====

Experiment: Monkey pharmacokinetic studies
Assay type: in vivo, male Non-Naïve Cynomolgus Monkeys
Settings: male, cynomolgus monkey, plasma, PO 0.3 mg/kg
outcomeMeasure: Tmax (h)
// note: answer is a bare numeric in h

# input Could you share which Tmax value was measured for CC(C)(C)NC[C@H](O)c1cccc(C(F)(F)F)n1 ?
# output 1

# input Same for CC(C)(C)NC[C@H](O)c1cccc(C#N)n1
# output 1

Measured values drawn from patent US10947196B2 for this set.
